Tested on: Staphylococcus aureus ATCC 29213
EXPERIMENT: MIC by microdilution, compound alone or in combination with an aminoglycoside
Type: cell-based
TEST PARAMETERS: Staphylococcus aureus, ATCC29213, 20 h; read-out: MIC of aminoglycoside against S. aureus ATCC 29213, aminoglycoside alone
READOUT LABEL: MIC (µg/mL)
Reply numerically in µg/mL, unit not repeated.

Some solved entries appear below for comparison.
NCC[C@H](O)C(=O)N[C@@H]1C[C@H](N)[C@@H](O[C@H]2O[C@H](CN)[C@@H](O)[C@H](O)[C@H]2O)[C@H](O)[C@H]1O[C@H]1O[C@H](CO)[C@@H](O)[C@H](N)[C@H]1O [Amikacin, reference compound]: 4
NC[C@H]1O[C@H](O[C@H]2[C@H](O)[C@@H](O[C@H]3O[C@H](CO)[C@@H](O)[C@H](N)[C@H]3O)[C@H](N)C[C@@H]2N)[C@H](O)[C@@H](O)[C@@H]1O [Kanamycin, kanamycin, reference compound]: 4

# evaluate next
Q: Look up and report measured MIC for this entry: NC[C@H]1O[C@H](O[C@H]2[C@H](O)[C@@H](O[C@H]3O[C@H](CO)[C@@H](O)[C@H](N)[C@H]3O)[C@H](N)C[C@@H]2N)[C@H](N)C[C@@H]1O [Tobramycin, reference compound]
A: 1

The measured values listed here are drawn from patent US10716797B2.
